Origin of values: paper PMC4414246

# Tested on: U1A E19F:Y13Q (UniProt P09012 10-89, Y13Q;E19F)
# Sequence (P09012 10-89 Y13Q/E19F): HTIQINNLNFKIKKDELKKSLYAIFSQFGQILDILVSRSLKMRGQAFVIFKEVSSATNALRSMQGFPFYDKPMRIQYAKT
# Experiment notes: fluorescence polarization
Recorded endpoint: Kd (µM)
# output: bare number, implied unit µM

Q: Param item = GGCAGAUCUGAGCCUGGGAGCUCUCUGCC (structured_RNA) [TAR RNA] ; retrieve measured Kd.
Result: 58
